assay: In vivo pharmacokinetics in rats, intravenous bolus injection (IV); conditions: rats, IV, 2 mg/kg
assay endpoint: Vss_obs (L/kg)
Value expressed in L/kg; do not type the unit.

These solved cases illustrate the format of a correct answer.
CN1Cc2cnc3ccc(-c4cnc5[nH]ccc5c4)nc3c2N(c2cccc(C(F)(F)F)c2)C1=O
5.28
CC(=O)Nc1ccc(-c2ccc3ncc4c(c3n2)N(c2cccc(C(F)(F)F)c2)C(=O)N(C)C4)cn1
4.45
COc1ccc(-c2ccc3ncc4c(c3c2)n(-c2ccc(N3CCNCC3)c(C(F)(F)F)c2)c(=O)n4C)cn1 [BGT-226, reference compound]
8.72
CN1Cc2cnc3ccc(-c4ccc(N)nc4)nc3c2N(c2cccc(C(F)(F)F)c2)C1=O
5.6
CN1Cc2cnc3ccc(-c4cnc(N)nc4)nc3c2N(c2cccc(C(F)(F)F)c2)C1=O
2.97

Next compound, Vss_obs to be filled in.
Noted for Cn1c(=O)n(-c2ccc(C(C)(C)C#N)cc2)c2c3cc(-c4cnc5ccccc5c4)ccc3ncc21 [BEZ-235, reference compound] : its Vss_obs reads 5.93
